The measured values listed here are drawn from patent US20260250371A1.

Readings of pKd for the listed binders
Target: T1, recombinant human FGF23 (R179Q) (human, UniProt Q9GZV9 25-251)
T1 construct: also called rhFGF23(R179Q); hFGF23(R179Q)
T1 sequence (looked up): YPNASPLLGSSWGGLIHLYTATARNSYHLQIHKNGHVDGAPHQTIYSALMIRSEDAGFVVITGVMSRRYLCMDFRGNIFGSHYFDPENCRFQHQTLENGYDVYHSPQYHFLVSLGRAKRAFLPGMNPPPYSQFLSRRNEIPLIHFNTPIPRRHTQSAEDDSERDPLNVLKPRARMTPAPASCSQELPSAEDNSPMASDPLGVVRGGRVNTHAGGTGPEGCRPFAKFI
Assay: SPR, antibody captured on hIgG chip, human FGF23 analyte
Scale note: pKd = -log10(concentration in M).

BINDER	NUMBER
UGX201 (antibody, human IgG1, kappa, V domains shown, also called HC:S59E, LC:N92F; S59E/N92F) VH: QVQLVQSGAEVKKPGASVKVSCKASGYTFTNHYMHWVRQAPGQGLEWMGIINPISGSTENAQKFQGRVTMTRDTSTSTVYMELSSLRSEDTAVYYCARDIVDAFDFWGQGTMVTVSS VL: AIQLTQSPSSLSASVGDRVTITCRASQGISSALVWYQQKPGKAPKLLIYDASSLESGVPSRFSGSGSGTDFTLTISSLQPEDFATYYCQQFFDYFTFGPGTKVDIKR	11.29
UGX157 (antibody, human IgG1, kappa, V domains shown, also called HC:I54Y; I54Y) VH: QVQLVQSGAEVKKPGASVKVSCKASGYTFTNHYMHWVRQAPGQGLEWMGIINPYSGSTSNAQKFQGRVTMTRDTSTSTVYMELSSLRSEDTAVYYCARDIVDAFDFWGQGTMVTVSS VL: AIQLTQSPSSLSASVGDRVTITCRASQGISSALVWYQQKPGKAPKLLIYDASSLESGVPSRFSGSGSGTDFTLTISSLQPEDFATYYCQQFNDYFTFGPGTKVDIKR	11.12
UGX204 (antibody, human IgG1, kappa, V domains shown, also called HC:S59E, LC:S52E; S59E/S52E) VH: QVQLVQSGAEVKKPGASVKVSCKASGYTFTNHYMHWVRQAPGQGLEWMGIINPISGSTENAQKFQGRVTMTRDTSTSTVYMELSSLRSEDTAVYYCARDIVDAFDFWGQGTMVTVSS VL: AIQLTQSPSSLSASVGDRVTITCRASQGISSALVWYQQKPGKAPKLLIYDAESLESGVPSRFSGSGSGTDFTLTISSLQPEDFATYYCQQFNDYFTFGPGTKVDIKR	10.88
UGX182 (antibody, human IgG1, kappa, V domains shown, also called HC:S59D, HC:V101I; S59D/V101I) VH: QVQLVQSGAEVKKPGASVKVSCKASGYTFTNHYMHWVRQAPGQGLEWMGIINPISGSTDNAQKFQGRVTMTRDTSTSTVYMELSSLRSEDTAVYYCARDIIDAFDFWGQGTMVTVSS VL: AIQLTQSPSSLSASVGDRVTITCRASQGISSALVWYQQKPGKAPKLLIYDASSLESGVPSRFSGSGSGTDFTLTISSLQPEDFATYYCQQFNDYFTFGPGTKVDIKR	11.02

QUERY: # input binder: UGX175 (antibody, human IgG1, kappa, V domains shown, also called HC:A103S; A103S) VH: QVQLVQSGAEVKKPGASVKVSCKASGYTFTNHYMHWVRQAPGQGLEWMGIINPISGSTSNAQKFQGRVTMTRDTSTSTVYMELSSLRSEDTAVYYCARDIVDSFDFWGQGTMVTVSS VL: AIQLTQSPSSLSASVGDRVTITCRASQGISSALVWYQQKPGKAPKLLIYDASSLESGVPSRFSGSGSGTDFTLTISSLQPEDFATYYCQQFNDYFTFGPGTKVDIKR ; wanted: its pKd
RESULT: 11.11

QUERY: What value of pKd has been reported for the following binder? UGX139 (antibody, human IgG1, kappa, V domains shown, also called UGX038; LC:N92Y) VH: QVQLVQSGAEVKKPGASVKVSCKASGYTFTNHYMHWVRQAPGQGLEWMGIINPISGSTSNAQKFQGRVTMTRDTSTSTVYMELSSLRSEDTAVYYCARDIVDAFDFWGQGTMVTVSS VL: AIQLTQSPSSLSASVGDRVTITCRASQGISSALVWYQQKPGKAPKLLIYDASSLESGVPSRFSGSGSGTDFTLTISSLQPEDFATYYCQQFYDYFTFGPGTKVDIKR
RESULT: 10.79

QUERY: May I ask what pKd has been recorded for UGX126 (antibody, human IgG1, kappa, V domains shown, also called LC:S52D; S52D) VH: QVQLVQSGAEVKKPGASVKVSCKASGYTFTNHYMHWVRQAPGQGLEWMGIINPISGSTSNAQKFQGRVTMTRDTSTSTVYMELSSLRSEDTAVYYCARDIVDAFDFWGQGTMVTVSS VL: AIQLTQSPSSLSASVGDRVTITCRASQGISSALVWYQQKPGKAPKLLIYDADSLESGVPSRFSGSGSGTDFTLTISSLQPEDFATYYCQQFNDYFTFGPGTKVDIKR ?
RESULT: 10.91

QUERY: Which pKd reading was recorded for the binder UGX202 (antibody, human IgG1, kappa, V domains shown, also called HC:S59E, LC:N92Y; S59E/N92Y) VH: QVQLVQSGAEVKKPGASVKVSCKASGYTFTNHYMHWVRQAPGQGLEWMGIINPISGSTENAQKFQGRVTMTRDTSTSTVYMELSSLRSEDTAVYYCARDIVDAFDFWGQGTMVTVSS VL: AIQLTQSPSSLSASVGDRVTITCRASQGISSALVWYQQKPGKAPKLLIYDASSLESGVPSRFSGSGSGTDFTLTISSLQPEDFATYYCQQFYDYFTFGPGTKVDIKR ?
RESULT: 11.12

QUERY: Please report the recorded pKd for UGX206 (antibody, human IgG1, kappa, V domains shown, also called HC:S59E, LC:Y94E; S59E/Y94E) VH: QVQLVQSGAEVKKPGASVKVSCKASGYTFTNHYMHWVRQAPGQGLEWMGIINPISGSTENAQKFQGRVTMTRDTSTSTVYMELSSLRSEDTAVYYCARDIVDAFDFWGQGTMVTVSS VL: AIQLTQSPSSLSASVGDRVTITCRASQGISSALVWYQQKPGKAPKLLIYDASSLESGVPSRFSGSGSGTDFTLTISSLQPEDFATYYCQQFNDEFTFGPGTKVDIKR .
RESULT: 11.10

QUERY: Quick check: pKd of UGX156 (antibody, human IgG1, kappa, V domains shown, also called HC:I54F; I54F) VH: QVQLVQSGAEVKKPGASVKVSCKASGYTFTNHYMHWVRQAPGQGLEWMGIINPFSGSTSNAQKFQGRVTMTRDTSTSTVYMELSSLRSEDTAVYYCARDIVDAFDFWGQGTMVTVSS VL: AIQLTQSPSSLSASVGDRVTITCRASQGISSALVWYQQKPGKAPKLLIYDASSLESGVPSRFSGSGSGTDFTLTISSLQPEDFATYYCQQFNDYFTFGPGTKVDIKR ?
RESULT: 10.98
